Values compiled from patent US20120114652A1.

Target Entity: T1, rat PAI-1 (rat, UniProt P20961 24-402)
T1 sequence: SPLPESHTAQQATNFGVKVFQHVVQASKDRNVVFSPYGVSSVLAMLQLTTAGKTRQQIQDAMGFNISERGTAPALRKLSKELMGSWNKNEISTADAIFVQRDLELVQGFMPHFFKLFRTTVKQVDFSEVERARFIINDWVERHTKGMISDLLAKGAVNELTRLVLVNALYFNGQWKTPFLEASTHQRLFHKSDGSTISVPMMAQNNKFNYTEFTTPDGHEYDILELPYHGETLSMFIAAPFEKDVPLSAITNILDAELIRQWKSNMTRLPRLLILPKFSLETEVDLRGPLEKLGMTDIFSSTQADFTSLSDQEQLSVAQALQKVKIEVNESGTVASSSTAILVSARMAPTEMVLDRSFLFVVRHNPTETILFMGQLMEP
Protocol Summary: cell-based or functional assay
For each of the binders below, state its IC50 ratio rat/human.
Provide a numeric answer; units are not to be included.

Returns the measured IC50 ratio rat/human for the input binder. Input: Antibody 15, scFv (scFv, V domains shown) VH: QVQLQQSGAEVKKPGSSVKVSCKASGGTFSSYAISWVRQAPGQGLEWMGGIIPTFGTANYAQKFQGRVTITADESTSTAYMELSGLRSEDTAVYYCAREKRQWLEGHFDYWGRGTPVTVSS VL: DIQMAQSPSFLSASIGDRVTITCRASEGIYHNLAWYQQKPGKAPKLLIYRASSLASGAPSRFSGSGSGTDFTLTISSLQPDDFATYYCQQYSNYPLTFGGGTKLEIR
8.9

Returns the measured IC50 ratio rat/human for the input binder. Input: Antibody 10, scFv (scFv, V domains shown) VH: QVQLQQSGAEVKKPGSSVKVSCKASGGTFSSYAISWVRQAPGQGLEWMGGIIPTFGTANYAQKFQGRVTITADESTSTAYMELSSLRSEDTAVYYCAREKRQWLEGHFDYWGRGTPVTVSS VL: DIQMTQSPSFLSASIGDRVAITCRASEGIYHSLAWYQQKPGKAPKLLIYRASSLASGAPSRFSGSGSGTDFTLTISSLQPDDFATYYCQQYSNYPLTFGGGTRLEIK
132

Returns the measured IC50 ratio rat/human for the input binder. Input: Antibody 17, scFv (scFv, V domains shown) VH: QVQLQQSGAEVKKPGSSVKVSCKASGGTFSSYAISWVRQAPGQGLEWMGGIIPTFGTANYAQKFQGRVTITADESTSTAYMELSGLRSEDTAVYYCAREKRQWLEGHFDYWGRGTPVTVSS VL: DIQMTQSPSFLSASIGDRVTITCRASEGIYHELAWYQQKPGKAPKLLIYRASSLASGAPSRFSGSGSGTDFTLTISSLQPDDFATYYCQQYSNYPLTFGGGTKLEIK
0.3
